Molecular target: mouse CB2 receptors (Mus musculus, UniProt P47936)
Construct: membranes from the mouse brain and spleen were used, respectively; from tissue; host or cells: mouse spleen membranes, CD-1 mice
Sequence (P47936 whole entry): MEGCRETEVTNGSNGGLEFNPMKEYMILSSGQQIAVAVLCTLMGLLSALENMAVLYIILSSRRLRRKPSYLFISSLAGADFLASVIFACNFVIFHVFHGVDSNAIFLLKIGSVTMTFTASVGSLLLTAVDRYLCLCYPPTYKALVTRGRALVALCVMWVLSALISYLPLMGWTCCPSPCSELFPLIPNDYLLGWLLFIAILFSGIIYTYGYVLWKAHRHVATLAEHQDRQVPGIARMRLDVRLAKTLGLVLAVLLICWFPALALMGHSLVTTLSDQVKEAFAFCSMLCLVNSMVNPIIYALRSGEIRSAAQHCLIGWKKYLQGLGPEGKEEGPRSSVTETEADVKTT
Test: [3H]-CP-55,940 competition binding, mouse spleen membranes
readout.kind: pKi
pKi field: float, defined as -log10 of concentration (mol/L).

Q) Entry CCCCCn1cc(Cc2cccc3ccccc23)c2ccccc21 has what pKi?
A) 6.31

---

Biological target: human CB2 receptors (Homo sapiens)
Construct: host or cells: CHO cells
Sequence (P34972 whole entry): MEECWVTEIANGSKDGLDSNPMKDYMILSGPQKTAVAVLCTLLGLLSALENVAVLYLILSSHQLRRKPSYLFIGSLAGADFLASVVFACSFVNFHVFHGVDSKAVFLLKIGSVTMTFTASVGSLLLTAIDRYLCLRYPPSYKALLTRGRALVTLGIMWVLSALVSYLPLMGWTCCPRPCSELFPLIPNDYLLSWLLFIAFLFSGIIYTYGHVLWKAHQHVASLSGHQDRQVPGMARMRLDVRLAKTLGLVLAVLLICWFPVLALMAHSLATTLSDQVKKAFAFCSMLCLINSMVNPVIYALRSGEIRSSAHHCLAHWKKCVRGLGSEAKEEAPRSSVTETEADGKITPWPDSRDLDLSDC
Test: Cyclic AMP assay (forskolin-stimulated) in CHO cells transfected with human CB2 receptors
Format: cell-based
readout.kind: pIC50
The scale used: pIC50 is minus the common logarithm of the concentration in molar units.

Q) Value lookup for pIC50; key = CCCCCn1cc(Cc2cccc3ccccc23)c2ccccc21
A) 6.06
